Would you kindly list composite z-score for each of these molecules?
Tested on: Fibrinogen (Alexa647-labelled)
Experiment: fibrinogen binders on compound microarrays, profiling panel, artefact control for SMM control-protein annotation, biochemical, small-molecule microarray, 635/667 nm fluorescence (AID 1131);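 also: z-score merges 667 nm fluorescence with per-spot signal-to-noise over triplicate slides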
Conditions: fibrinogen-A647 binding fluorescence, higher = more signal
Answers are plain numbers.

// solved cases for composite z-score follow
{"columns": ["Molecule", "Numeric value"],
 "data": [
  ["C=CCOC(=O)[C@@H]1[C@H]2C(=O)O[C@H](c3ccccc3)[C@H](c3ccccc3)N2[C@H](c2ccc(OCCOC(=O)[C@H]3C[C@H]4C(=O)N[C@@H](CCCCNC(C)=O)C(=O)N4[C@H]3c3cccc(OCCO)c3)cc2)[C@@]12C(=O)Nc1ccc(I)cc12", 0.777],
  ["CN1C(=O)C2C=CC(C(O)c3c(F)cccc3Cl)N(Nc3ccccc3)C2C1=O (centres undefined)", 0.978],
  ["COc1ccc(NN2C(C(O)c3ccccn3)C=CC3C(=O)N(C4CCCCC4)C(=O)C32)cc1 (centres undefined)", 0.955]
]}

Now take the following molecule into account.
Lab note: COCCOC(=O)N1C(=O)[C@@]2(c3cc(C#CC4(O)CCCCCC4)ccc31)[C@H](c1ccccc1OCCO)N1[C@H](c3ccccc3)[C@H](c3ccccc3)OC(=O)[C@H]1[C@@H]2C(N)=O gave composite z-score of 0.872

* * *

Assay: osmotic lysis modulators in infected erythrocytes, primary screen, PSAC antagonist project, cell-based, P. falciparum Indochina, OD700, 3 h (AID 1156)
Details: higher = more signal, called active from +8 up or from −8 down
Measurement type: z-score
Answers are plain numbers.

{"columns": ["Compound", "z-score"],
 "data": [
  ["C=C[C@H](COC(C)=O)NS(=O)(=O)c1ccc(Br)cc1", -0.3],
  ["CCCC[C@@H]1C[C@H]1[C@@H](NC(=O)c1ccccc1)c1ccc(Cl)cc1", -0.573],
  ["CCOc1cc(C(O)C2C=CC3C(=O)N(C4CCCCC4)C(=O)C3N2Nc2ccc(OC)cc2)ccc1O (centres undefined)", 1.04],
  ["C=CCOC(=O)[C@H]1[C@@H]2C(=O)O[C@@H](c3ccccc3)[C@@H](c3ccccc3)N2[C@@H](c2ccc(OCCOC(=O)[C@H]3C[C@H]4C(=O)N[C@@H](CCCC[N+](C)(C)C)C(=O)N4[C@H]3c3cccc(OCCO)c3)cc2)[C@]12C(=O)Nc1ccc(I)cc12", 1.58],
  ["COC(=O)[C@@]1(Cc2ccc(OC)cc2)[C@H]2c3cc(C(=O)N(C)C)n(Cc4nc5ccccc5[nH]4)c3C[C@H]2CN1C(=O)c1ccccc1", 0.482]
]}

// each listed compound needs a value for z-score
1. COCCOC(=O)N1C(=O)[C@@]2(c3cc(C#Cc4ccc(OC)cc4)ccc31)[C@H](C(=O)NC[C@H](O)c1ccccc1)[C@H]1C(=O)O[C@H](c3ccccc3)[C@H](c3ccccc3)N1[C@@H]2c1ccc(O)cc1
2. CC(C)C[C@@H]1NC(=O)[C@H]2C[C@@H](C(=O)NCCCCCC[N+](C)(C)C)[C@@H](c3cccc(OCCO)c3)N2C1=O
3. CO[C@H]1O[C@H](CO)[C@@H](OC(=O)Nc2ccc(Oc3ccccc3)cc2)[C@H](OC(=O)Nc2ccccc2-c2ccccc2)[C@@H]1OC(=O)Nc1ccccc1-c1ccccc1
4. O=C(O)[C@H](Cc1ccccc1)n1cc(-c2ccccn2)nn1

OUT:
-0.784
0.853
0.228
-0.906

* * *

Molecular target: Pro-neuregulin-1, membrane-bound isoform (Homo sapiens)
Test: NRG1 binders on small-molecule microarrays, primary screen, psychiatric disease protein project, biochemical, small-molecule microarray, fluorescence 635/667 (AID 1075);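 also: score combines 667 nm spot fluorescence with signal to noise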
Conditions: NRG1 binding, 635 nm fluorescence, higher = more signal
# if value of composite z-score reaches 0.5, tag true (1); if it stays below, tag false (0)

For orientation, consider the following solved cases.
{"columns": ["Compound", "Class assignment"],
 "data": [
  ["COc1ccccc1CN1C(=O)c2ccccc2[C@](Cc2ccccc2I)(C(=O)NC(C)C)[C@@H]1c1ccc(CO)cc1", "true (1)"],
  ["CC1CC/C=C\\[C@H]2OC34C=CCN(c5ccc6ccccc6c5)C(=O)[C@H]3N(C(CO)C(C)C)C(=O)[C@@H]4C2C(=O)O1 (some centres undefined)", "true (1)"],
  ["CN1C(=O)C2C(C1=O)C1C=C(c3ccc(CO)cc3)C2C(c2cccs2)N1Cc1cccc(OC(F)(F)F)c1 (centres undefined)", "true (1)"],
  ["CC(C)C(O)C1C=CC2C(=O)N(C)C(=O)C2N1Nc1ccccc1 (centres undefined)", "true (1)"],
  ["[N-]=[N+]=Nc1ccccc1C[C@@]1(C(=O)O)N=C(c2ccc(OCCCO)cc2)O[C@@H]1c1ccccc1", "true (1)"]
]}

IN: Hi, just wondering whether COc1ccc(C(O)C2C=CC3C(=O)N(C)C(=O)C3N2N2CCCCC2)cc1 (centres undefined) shows composite z-score of 0.5 or higher.
OUT: true (1)

IN: Tell me whether composite z-score is at least 0.5 here: Cc1ccc(F)cc1S(=O)(=O)N[C@@H]1CCN(Cc2ccc(Oc3ccccc3)cc2)C1
OUT: false (0)

IN: Hi team, for CC(C)(C)OC(=O)CC[C@]1(C(=O)N2CCOCC2)N=C(c2ccc(OCCCO)cc2)O[C@H]1c1ccccc1 , is the recorded composite z-score at or above 0.5?
OUT: true (1)

IN: Please check the record Cc1ccc(S[C@]2(C(=O)NCc3ccccc3)CC(=O)N(C(C)C)[C@@H]2c2ccc(CO)cc2I)cc1 and state if its composite z-score is at or above 0.5.
OUT: true (1)

* * *

Target: Pro-neuregulin-1, membrane-bound isoform (Homo sapiens) (UniProt Q02297)
Sequence (Q02297 whole entry, looked up, canonical isoform): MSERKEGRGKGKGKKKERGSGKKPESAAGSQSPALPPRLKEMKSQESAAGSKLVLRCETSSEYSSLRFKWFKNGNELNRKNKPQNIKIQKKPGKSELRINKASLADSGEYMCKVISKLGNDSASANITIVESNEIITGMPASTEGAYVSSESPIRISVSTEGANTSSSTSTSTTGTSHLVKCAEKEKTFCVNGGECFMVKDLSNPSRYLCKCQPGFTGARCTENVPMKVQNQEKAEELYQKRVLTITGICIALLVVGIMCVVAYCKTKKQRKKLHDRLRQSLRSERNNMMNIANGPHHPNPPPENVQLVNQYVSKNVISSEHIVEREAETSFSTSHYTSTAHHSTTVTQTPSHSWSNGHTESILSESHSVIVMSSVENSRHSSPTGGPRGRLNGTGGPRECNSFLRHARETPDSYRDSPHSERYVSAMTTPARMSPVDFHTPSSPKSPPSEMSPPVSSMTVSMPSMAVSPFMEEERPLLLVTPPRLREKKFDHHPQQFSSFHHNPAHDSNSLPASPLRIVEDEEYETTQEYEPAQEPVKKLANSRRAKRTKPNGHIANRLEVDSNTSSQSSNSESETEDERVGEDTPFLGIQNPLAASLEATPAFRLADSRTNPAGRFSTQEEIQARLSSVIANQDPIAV
Assay: NRG1 binders on small-molecule microarrays, primary screen, psychiatric disease protein project, biochemical, small-molecule microarray, fluorescence 635/667 (AID 1075);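 also: score combines 667 nm spot fluorescence with signal to noise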
Conditions: NRG1 binding, 635 nm fluorescence, higher = more signal
Measurement type: composite z-score
Answers are plain numbers.

Field: example entries. Status: answers known.
{"columns": ["Molecule", "composite z-score"],
 "data": [
  ["COCCCNC(=O)[C@@H]1c2ccccc2C(=O)N(Cc2ccccc2C(F)(F)F)[C@H]1c1ccc(CO)cc1", 0.068],
  ["O=C1C[C@]2(c3ccc([N+](=O)[O-])cc3)C(=O)N(Cc3ccccc3)c3cc(CO)ccc3[C@H]2N1CC12CC3CC(CC(C3)C1)C2", -0.468]
]}

Provide the reported composite z-score of each entry below, same order.
1. COC(=O)Cn1c(C(=O)N2CCCC2)cc2c1C[C@H]1CN(C(=O)c3ccccc3)[C@@](Cc3ccc(F)cc3)(C(=O)OC)[C@@H]21
2. CCCCN1CC=CC23O[C@@H]4/C=C\CCC(C)OC(=O)C4[C@H]2C(=O)N(CCCCCCO)[C@@H]3C1=O (stereo not given in full)

OUT:
2
0.272

Pro-neuregulin-1, membrane-bound isoform (Homo sapiens) (UniProt Q02297) composite z-score of COC1(C)CN(Cc2ccccc2Br)[C@H](/C=C/c2ccccc2)[C@H](Cc2ccccc2)O1 (stereo not given in full) is -0.435

* * *

Target: Left-right determination factor 2 (Homo sapiens) (UniProt O00292)
Sequence (O00292 whole entry, looked up): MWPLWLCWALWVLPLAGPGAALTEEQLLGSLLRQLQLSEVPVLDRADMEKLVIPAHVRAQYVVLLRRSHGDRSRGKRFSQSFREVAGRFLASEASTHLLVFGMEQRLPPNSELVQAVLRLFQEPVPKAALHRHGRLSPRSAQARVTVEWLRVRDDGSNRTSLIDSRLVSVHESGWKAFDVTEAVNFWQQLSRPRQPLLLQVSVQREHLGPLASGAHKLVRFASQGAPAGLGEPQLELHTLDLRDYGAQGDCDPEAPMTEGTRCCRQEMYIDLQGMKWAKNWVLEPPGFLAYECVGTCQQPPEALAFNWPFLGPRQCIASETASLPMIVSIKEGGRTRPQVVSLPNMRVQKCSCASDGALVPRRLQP
Assay: LEFTY2 binders on small-molecule microarrays, primary screen, biochemical, small-molecule microarray, 635 nm fluorescence scan (AID 1110)
Conditions: LEFTY2 binding, higher = more signal
Measurement type: composite z-score
One number for each entry.

{"columns": ["Compound", "Target or system", "Measurement type", "Numeric value"],
 "data": [
  ["CC(=O)NCCCC[C@@H]1NC(=O)[C@@H]2C[C@H](C(=O)O)[C@H](c3ccc(O)cc3)N2C1=O", "Left-right determination factor 2 (Homo sapiens) (UniProt O00292)", "composite z-score", -2.7],
  ["COCCOC(=O)N1C(=O)[C@@]2(c3cc(C#CCNC(N)=O)ccc31)[C@H](C(=O)N1CCCCCCC1)[C@H]1C(=O)O[C@H](c3ccccc3)[C@H](c3ccccc3)N1[C@@H]2c1ccc(O)cc1", "Left-right determination factor 2 (Homo sapiens) (UniProt O00292)", "composite z-score", 0.212],
  ["CC(=O)n1cc(C(O)C2C=CC3C(=O)N(Cc4ccccc4)C(=O)C3N2n2cnnc2)c2ccccc21 (centres undefined)", "Left-right determination factor 2 (Homo sapiens) (UniProt O00292)", "composite z-score", 0.0796]
]}

Now consider a different compound.
composite z-score in this record for C[C@]1(C(=O)NC2CC2)c2ccccc2C(=O)N(Cc2ccc(OC(F)(F)F)cc2)[C@H]1c1ccc(CO)cc1 : -1.07

* * *

Test system: Lefty1
Test: Lefty1 binders on small-molecule microarrays, primary screen, biochemical, small-molecule microarray, 635/667 nm fluorescence (AID 1139)
Settings: small-molecule microarray binding, fluorescence 635/667; higher = more signal
Measurement type: composite z-score
Give bare numbers.

{"columns": ["Compound", "Target or system", "composite z-score"],
 "data": [
  ["CC1CC/C=C\\[C@H]2OC34C=CCN(c5ccc6ccccc6c5)C(=O)[C@H]3N(C(CO)C(C)C)C(=O)[C@@H]4C2C(=O)O1 (some centres undefined)", "Lefty1", 0.0964],
  ["CCC[C@@H]1C[C@@]1(CCC)[C@@H](NP(=O)(c1ccccc1)c1ccccc1)c1ccc(Cl)cc1", "Lefty1", -0.413]
]}

Kindly give each listed record's composite z-score.
1. CC(CO)N1C(=O)[C@@H]2C3C(=O)OCCC/C=C\[C@H]3OC23C=CCN(Cn2nnc4ccccc42)C(=O)[C@@H]13 (some centres undefined)
2. CCCc1cccc(=O)o1
3. Cc1ccc(S[C@]2(C(=O)NC(C)C)CC(=O)N(C3Cc4ccccc4C3)[C@@H]2c2ccc(CO)cc2I)cc1
4. CC(C)(C)OC(=O)CC[C@]1(C(=O)O)N=C(c2ccc(OCCCO)cc2)O[C@H]1c1ccccc1
5. COc1ccc(C#Cc2ccc3c(c2)[C@]2(C(=O)N3)[C@H](C(=O)N3CCc4cc(OC)c(OC)cc4C3)[C@H]3C(=O)O[C@H](c4ccccc4)[C@H](c4ccccc4)N3[C@@H]2c2ccc(O)cc2)cc1

OUT:
[-0.13, 0.614, -2.2, 0.0766, 0.374]

// for each compound in input: emit composite z-score
1. COc1cc(CO)cc(I)c1O[C@H]1C=C(C(=O)NCCO)C[C@@H](N(CC2CCCCC2)C(=O)c2ccc(C(F)(F)F)cc2)[C@@H]1O
2. CC(C)C(O)C1C=CC2C(=O)N(C)C(=O)C2N1N(c1ccccc1)c1ccccc1 (centres undefined)
3. CC(C)CN1C(=O)[C@@]2(c3ccc([N+](=O)[O-])cc3)CC(=O)N(CC34CC5CC(CC(C5)C3)C4)[C@@H]2c2ccc(CO)cc21
4. CC(C)CNC(=O)[C@@]1(c2ccc([N+](=O)[O-])cc2)CC(=O)N(C2CCCCC2)[C@@H]1c1ccc(CO)cc1I
5. O=C1NC(=O)C2C1C=CC(C(O)c1ccc(Br)cc1)N2Nc1ccccn1 (centres undefined)
6. COc1cc(CO)cc(I)c1O[C@H]1C=C(C(=O)NCCO)C[C@@H](N(Cc2ccc(F)cc2)C(=O)C2CCCO2)[C@@H]1O (some centres undefined)

OUT:
[0.784, -0.852, -0.969, -0.411, -0.162, -0.0522]

Look at each compound and report its composite z-score.
1. C=C(C(=O)CC[C@H](OC(C)=O)c1cccc(OCCO)c1)C(C)C
2. CC[C@H]1C2=C3C(CC[C@H]4C(OCc5ccc(F)cc5C(F)(F)F)OC[C@](C)([C@@H]34)N(C(=O)OC(C)(C)C)C2)C2COC(=O)OCC21 (some centres undefined)

OUT:
-0.638
-0.233
